# System: CEM cells
# EXPERIMENT: Cell cytotoxicity assay on CEM cells
# Assay type: cell-based
# SETTINGS: read-out: Cytotoxity (ID50, μM) CEM
Where a name gives a salt, the structure may show the parent alone.
// reported IC50 per item

- COMPOUND: "O=C1NCc2cc3ccc4c(c3c(-c3ccc5c(c3)OCO5)c21)OCO4 [Compound 16]"
  COMPARISON_SIGN: "="
  IC50 / µM: 90
- COMPOUND: "O=C1c2cc3ccc4c(c3c(-c3ccc5c(c3)OCO5)c2C(=O)N1CCCOCc1ccccc1)OCO4 [Compound 10]"
  COMPARISON_SIGN: ">"
  IC50 / µM: 100
- COMPOUND: "O=c1[nH][nH]c(=O)c2c(-c3ccc4c(c3)OCO4)c3c4c(cc(Br)c3cc12)OCO4 [Compound 42]"
  COMPARISON_SIGN: "="
  IC50 / µM: 28
- COMPOUND: "O=C(O)c1cc2c(Br)cc3c(c2c(-c2ccc4c(c2)OCO4)c1CO)OCO3 [Compound 45, monosodium salt]"
  COMPARISON_SIGN: "="
  IC50 / µM: 46.5

====

// reported IC50 per item
# EXPERIMENT: Cell cytotoxicity assay on MT-2 cells
# Format: cell-based
# SETTINGS: human, read-out: Cytotoxity (ID50, μM) MT-2

- COMPOUND: "O=C1OCc2c1cc1c(Cl)cc3c(c1c2-c1ccc2c(c1)OCO2)OCO3 [Compound 37]"
  COMPARISON_SIGN: "="
  IC50 [µM]: 50
- COMPOUND: "O=C1NCc2c1cc1ccc3c(c1c2-c1ccc2c(c1)OCO2)OCO3 [Compound 18]"
  COMPARISON_SIGN: "="
  IC50 [µM]: 4
- COMPOUND: "Cc1c(C(=O)OCCCO)cc2ccc3c(c2c1-c1ccc2c(c1)OCO2)OCO3 [Compound 7]"
  COMPARISON_SIGN: "="
  IC50 [µM]: 10
- COMPOUND: "O=C(NCCCOCc1ccccc1)c1cc2ccc3c(c2c(-c2ccc4c(c2)OCO4)c1COCc1ccccc1)OCO3 [Compound 8]"
  COMPARISON_SIGN: ">"
  IC50 [µM]: 100

====

// reported EC50 per item
# Tested on: HSV-2
# EXPERIMENT: In vitro antiviral assay for HSV-2
# Assay type: cell-based, Herpes Simplex Virus 2
# SETTINGS: Human alphaherpesvirus 2, read-out: Antiviral Activities (EC50, μM) HSV-2

- COMPOUND_STRUCTURE: "NC(=O)c1cc2ccc3c(c2c(-c2ccc4c(c2)OCO4)c1C(N)=O)OCO3"
  EC50: "> 50 µM"
- COMPOUND_STRUCTURE: "O=C(NCCCOCc1ccccc1)c1cc2ccc3c(c2c(-c2ccc4c(c2)OCO4)c1COCc1ccccc1)OCO3"
  EC50: "> 25 µM"
- COMPOUND_STRUCTURE: "O=C(OCCCOCc1ccccc1)c1cc2ccc3c(c2c(-c2ccc4c(c2)OCO4)c1COCc1ccccc1)OCO3"
  EC50: "> 50 µM"
- COMPOUND_STRUCTURE: "CCOC(=O)c1c(C(=O)OCC)c(-c2ccc3c(c2)OCO3)c2c3c(ccc2c1O)OCO3"
  EC50: "> 50 µM"

====

# Test system: HSV-2
# EXPERIMENT: In vitro antiviral assay for HSV-2
# Type: cell-based, Herpes Simplex Virus 2
# SETTINGS: Human alphaherpesvirus 2, read-out: Antiviral Activities (EC50, μM) HSV-2
RECORDED_ENDPOINT: EC50

- COMPOUND: "O=C1OCc2c1c(-c1ccc3c(c1)OCO3)c1c3c(ccc1c2O)OCO3 [Compound 34]"
  MEAS_VALUE: "28 µM"
- COMPOUND: "COc1ccc(-c2c3c(cc4ccc5c(c24)OCO5)C(=O)NC3)cc1OC [Compound 22]"
  MEAS_VALUE: "0.5 µM"
- COMPOUND: "Cc1c(C(=O)OCCCO)cc2ccc3c(c2c1-c1ccc2c(c1)OCO2)OCO3 [Compound 7]"
  MEAS_VALUE: "> 25 µM"
- COMPOUND: "O=C1OCc2c1cc1ccc3c(c1c2-c1ccc2c(c1)OCO2)OCO3 [Compound 2, reference compound]"
  MEAS_VALUE: "35 µM"
- COMPOUND: "O=C(O)c1cc2ccc3c(c2c(-c2ccc4c(c2)OCO4)c1C(=O)O)OCO3 [Compound 32]"
  MEAS_VALUE: "> 50 µM"
- COMPOUND: "O=c1[nH][nH]c(=O)c2c(-c3ccc4c(c3)OCO4)c3c4c(ccc3cc12)OCO4 [Compound 28]"
  MEAS_VALUE: "1.4 µM"
- COMPOUND: "O=C1c2cc3ccc4c(c3c(-c3ccc5c(c3)OCO5)c2C(=O)N1CCCO)OCO4 [Compound 29]"
  MEAS_VALUE: "> 30 µM"
- COMPOUND: "O=C1NCc2c1cc1c(Br)cc3c(c1c2-c1ccc2c(c1)OCO2)OCO3 [Compound 40]"
  MEAS_VALUE: "> 20 µM"
- COMPOUND: "CCOC(=O)c1c(C(=O)OCC)c(-c2ccc3c(c2)OCO3)c2c3c(ccc2c1OC)OCO3 [Compound 35]"
  MEAS_VALUE: "> 50 µM"
- COMPOUND: "O=C1NCc2c1cc1ccc3c(c1c2-c1ccc2c(c1)OCO2)OCO3 [Compound 18]"
  MEAS_VALUE: "0.16 µM"
- COMPOUND: "COC(=O)c1c(C(=O)O)cc2ccc3c(c2c1-c1ccc2c(c1)OCO2)OCO3 [Compound 31]"
  MEAS_VALUE: "> 50 µM"
- COMPOUND: "O=C(O)c1cc2ccc3c(c2c(-c2ccc4c(c2)OCO4)c1COCc1ccccc1)OCO3 [Compound 5]"
  MEAS_VALUE: "> 25 µM"
- COMPOUND: "O=C([O-])c1cc2c(I)cc3c(c2c(-c2ccc4c(c2)OCO4)c1CO)OCO3.[Na+] [Compound 46, monosodium salt]"
  MEAS_VALUE: "> 50 µM"
- COMPOUND: "CN1C(=O)c2cc3ccc4c(c3c(-c3ccc5c(c3)OCO5)c2C1=O)OCO4 [Compound 23]"
  MEAS_VALUE: "> 50 µM"
- COMPOUND: "O=c1[nH][nH]c(=O)c2c(-c3ccc4c(c3)OCO4)c3c4c(cc(I)c3cc12)OCO4 [Compound 43]"
  MEAS_VALUE: "> 40 µM"
- COMPOUND: "O=C1OCc2c1cc1c(Br)cc3c(c1c2-c1ccc2c(c1)OCO2)OCO3 [Compound 38]"
  MEAS_VALUE: "> 50 µM"
- COMPOUND: "CNC(=O)c1cc2ccc3c(c2c(-c2ccc4c(c2)OCO4)c1C(=O)O)OCO3 [Compound 13]"
  MEAS_VALUE: "> 25 µM"

====

// reported EC50 per item
# Test system: HSV-2
# EXPERIMENT: In vitro antiviral assay for HSV-2
# Format: cell-based, Herpes Simplex Virus 2
# SETTINGS: Human alphaherpesvirus 2, read-out: Antiviral Activities (EC50, μM) HSV-2
RECORDED_ENDPOINT: EC50

- COMPOUND_STRUCTURE: "O=C1c2cc3ccc4c(c3c(-c3ccc5c(c3)OCO5)c2CN1CCCOCc1ccccc1)OCO4"
  MEAS_VALUE: "> 20 µM"
- COMPOUND_STRUCTURE: "COC(=O)c1cc2ccc3c(c2c(-c2ccc4c(c2)OCO4)c1C(=O)OC)OCO3"
  MEAS_VALUE: "> 50 µM"
- COMPOUND_STRUCTURE: "CN1Cc2c(cc3ccc4c(c3c2-c2ccc3c(c2)OCO3)OCO4)C1=O"
  MEAS_VALUE: "1 µM"

====

# Tested on: HSV-1
# EXPERIMENT: In vitro antiviral assay for HSV-1
# Type: cell-based, Herpes Simplex Virus 1
# SETTINGS: in vitro; read-out: Antiviral Activities (EC50, μM) HSV-1
Counter-ions that a name gives are not always drawn.

- MOLECULE: "O=C1c2cc3ccc4c(c3c(-c3ccc5c(c3)OCO5)c2C(=O)N1CCCOCc1ccccc1)OCO4"
  EC50: "> 50 µM"
- MOLECULE: "O=C(O)c1cc2c(Br)cc3c(c2c(-c2ccc4c(c2)OCO4)c1CO)OCO3 [Compound 45, monosodium salt]"
  EC50: "> 50 µM"
- MOLECULE: "O=C1NCc2cc3ccc4c(c3c(-c3ccc5c(c3)OCO5)c21)OCO4"
  EC50: "> 50 µM"

====

# EXPERIMENT: Cell cytotoxicity assay on CEM cells
# Format: cell-based
# SETTINGS: human, read-out: Cytotoxity (ID50, μM) CEM

- MOLECULE: "O=C(OCc1ccccc1)c1cc2ccc3c(c2c(-c2ccc4c(c2)OCO4)c1COCc1ccccc1)OCO3"
  IC50: "> 50 µM"
- MOLECULE: "O=C([O-])c1cc2c(I)cc3c(c2c(-c2ccc4c(c2)OCO4)c1CO)OCO3.[Na+] [Compound 46, monosodium salt]"
  IC50: "> 100 µM"
- MOLECULE: "O=C([O-])c1cc2c(Cl)cc3c(c2c(-c2ccc4c(c2)OCO4)c1CO)OCO3.[Na+] [Compound 44, monosodium salt]"
  IC50: "> 100 µM"
- MOLECULE: "O=c1[nH][nH]c(=O)c2c(-c3ccc4c(c3)OCO4)c3c4c(cc(Cl)c3cc12)OCO4"
  IC50: "> 100 µM"
- MOLECULE: "O=C(O)c1cc2ccc3c(c2c(-c2ccc4c(c2)OCO4)c1COCc1ccccc1)OCO3"
  IC50: "> 50 µM"
- MOLECULE: "NC(=O)c1cc2ccc3c(c2c(-c2ccc4c(c2)OCO4)c1C(N)=O)OCO3"
  IC50: "> 100 µM"
